The compounds listed here are annotated with their selectivity ratio.
# ASSAY_DETAILS: Therapeutic index, ratio of CC50 for HEp2 to EC50 for RSV long A
# DETAILS: human, HEp2 cells; read-out: Ratio CC50/EC50
Lab note: jot the number down without any unit.

Record summary for CNCc1ccc2c(c1)nc(Cn1c(=O)n(C(C)C)c3ccccc31)n2CCC(C)C : reported selectivity ratio = 26

Lab book: selectivity ratio of CC(C)CCn1c(Cn2c(=O)n(C(C)C)c3ccccc32)nc2cccc(CO)c21 noted as 1

So, CC(C)CCn1c(Cn2c(=O)n(C(C)C)c3ccccc32)nc2cc(C(=O)N(C)C)ccc21 ? Its selectivity ratio was 1.03

Kindly note the recorded selectivity ratio for CNCc1ccc2nc(Cn3c(=O)n(C(C)C)c4ccccc43)n(CCC(C)C)c2c1 , which is 0.026

Reported selectivity ratio of CC(C)CCn1c(Cn2c(=O)n(C(C)C)c3ccccc32)nc2cc(C(N)=O)ccc21 : 141

selectivity ratio recorded for this compound, CC(C)CCn1c(Cn2c(=O)n(C(C)C)c3ccccc32)nc2cc(C#N)ccc21 , is 16.6

selectivity ratio in this record for CC(C)CCn1c(Cn2c(=O)n(C(C)C)c3ccccc32)nc2ccc(C#N)cc21 : 228

Per the records, this compound ( CC(C)CCn1c(Cn2c(=O)n(C(C)C)c3ccccc32)nc2cc(N)ccc21 ) has selectivity ratio equal to 258

----------
# ASSAY_DETAILS: Cytotoxicity against human HEp2 cells
# Assay type: cell-based, HEp-2
QUANTITY: CC50 (µM)
The reply should contain only the number, in µM.

Worked examples follow.
Just so you know, measured CC50 for CC(C)CCn1c(Cn2c(=O)n(C(C)C)c3ccccc32)nc2cc(CCN)ccc21 came out at 11

Just so you know, measured CC50 for CC(C)CCn1c(Cn2c(=O)n(CC(=O)O)c3ccccc32)nc2cc(C(=N)N)ccc21 came out at 173

The compound listed as CNCc1ccc2c(c1)nc(Cn1c(=O)n(C(C)C)c3ccccc31)n2CCC(C)C shows CC50 equal to 1.48

CC50 reading for CC(=O)c1ccc2c(c1)nc(Cn1c(=O)n(C)c3ccccc31)n2CCC(C)C : 5.2

For reference, reported CC50 for CC(C)CCn1c(Cn2c(=O)n(CC(=O)OC(C)(C)C)c3ccccc32)nc2cc(C(=N)N)ccc21 stands at 7.9

Continuing:
Per the records, this compound ( CC(C)CCn1c(Cn2c(=O)n(C(C)C)c3ccccc32)nc2cc(C#N)ccc21 ) has CC50 equal to 7.93

Query COCc1cccc2c1nc(Cn1c(=O)n(C(C)C)c3ccccc31)n2CCC(C)C yields CC50 of 26.7

Per the records, this compound ( CC(C)CCn1c(Cn2c(=O)n(C(C)C)c3ccccc32)nc2c(CC#N)cccc21 ) has CC50 equal to 116

The compound identified as CC(C)CCn1c(Cn2c(=O)n(C(C)C)c3ccccc32)nc2ccc(CN(C)C)cc21 registered its CC50 at 26.7

----------
CC50 reference
# ASSAY_DETAILS: Cytotoxicity against human HEp2 cells
# Assay type: cell-based, HEp-2
# output: bare number, implied unit µM

Field CC50 (entry C=C(C)n1c(=O)n(Cc2nc3cc(C(=N)N)ccc3n2CCC(C)C)c2ccccc21 ) reads 10.8

For reference, reported CC50 for CC(C)CCn1c(Cn2c(=O)n(C(C)C)c3ccccc32)nc2cc(CC#N)ccc21 stands at 13.3

Continuing:
Looking up COC(=O)c1cccc2nc(Cn3c(=O)n(C(C)C)c4ccccc43)n(CCC(C)C)c12 , I found its CC50 recorded as 25.3
